Each record here notes measured GI50.
System: XF498
PROCEDURE_DETAILS: NCI tumour cell line growth inhibition, 48 h
Calls of active or inactive are those of the source. No stated cut-off is given here; in the data, active = GI50 up to about 1.1 µM and inactive = higher.

input: Data request, read-out GI50, for COCC12CC(CC1=O)C1C2ON2c3ccccc3C(=O)C12c1ccccc1 (stereo unspecified)
output: > 100 µM (inactive)

* * *

Tested on: SN12C
PROCEDURE_DETAILS: NCI tumour cell line growth inhibition, 48 h
The source made the active and inactive calls. Rule as the data show it: active = GI50 up to about 1.1 µM and inactive = higher.
Response enum: y for active, n for inactive

// known answers, use as guide
COMPOUND	ASSIGNED_CATEGORY
CC(=O)Nc1cc(C(=O)Nc2cc(C(=O)Nc3cc(C(=O)Nc4cc(C(=O)Nc5cc(C(=O)NCCC(=O)NCCCN(C)C)n(C)c5)n(C)c4)n(C)c3)n(C)c2)n(C)c1	n
CC(C)C1COC(c2cccc(C3=N[C@@H](C(C)C)CO3)n2)=N1 (stereo partly specified)	n
CC(C)(C)C(=O)C(CC(=O)c1ccccc1)C(=O)C(C)(C)C	n
CN(C)C(=O)C1CCC(=C2C(=O)OC(C)(C)OC2=O)N1C (stereo unspecified)	n
C[Si](C)(C)OC1(C#N)c2ccccc2CCCC12CCCC2 (stereo unspecified)	n

input: Which result was noted for this compound in the test: CC(=O)C1=CSC2[C@H](NC(=O)Cc3ccccc3)C(=O)N2C1C(=O)OC(c1ccccc1)c1ccccc1 (stereo partly specified)
output: n

input: Test call, this compound: CN(C)c1ccc(/C=c2\c3ccccc3n3c2cc(-c2ccccc2)[n+]3C)cc1
output: y

input: What classification did N#Cc1ccccc1NC(=O)/C(=N\NC(=O)c1ccncc1)C(c1cnc2ccc([N+](=O)[O-])cc2n1)[N+](=O)[O-] (stereo unspecified) end up with in this test?
output: n

input: What classification did Cc1cc2c(cc1C)[n+]([O-])c(C(=O)/C=C/c1ccc(Cl)cc1)c(C)[n+]2[O-] end up with in this test?
output: n

input: // return assay outcome for CCCCCCCC(=O)N/N=C/c1ccc(Sc2nccn2C)c([N+](=O)[O-])c1
output: n

input: // param item: O=C(c1ccco1)N(Cc1ccco1)C(=S)Nc1ccccc1 ; yields the recorded call
output: n

input: Recorded call for CCOC(=O)c1ccc(Nc2c3c(nc4ccccc24)CCCC3)cc1 ?
output: n

* * *

System: SF-539
PROCEDURE_DETAILS: NCI tumour cell line growth inhibition, 48 h
Active and inactive are the calls of the source. Rule as the data show it: active = GI50 up to about 1.1 µM and inactive = higher.
Returns: one label drawn from active, inactive

Worked cases, answers included:
COMPOUND	ASSIGNED_CATEGORY
N#C/C=c1/c2ccccc2n2nc3ccccc3c12	inactive
CCc1nc2ccc(NCCN(C)C)c3c(=O)c4ccccc4n1c23	inactive
CC(C)=CC(=O)OC1C2C(C)=CC(O)C(O)C2(C)C2C3(O)OCC24C(CC(=O)OC14)C(C)C3O (stereo not given)	active
COc1cccc(NC(=O)CC(=O)n2nc(-c3ccccc3)c(/N=N/c3ccc(Cl)cc3)c2-c2ccccc2)c1	inactive
CC(C)=CCNc1ncnc2c1ncn2CCC(=O)OC(C)(C)C	inactive

input: // outcome(item) with item = Clc1ccc(C2=NOC3C4CCC(C4)C23)cc1 (stereo not given)
output: inactive

input: Outcome logged for Oc1ccc2c(c1)CCc1c-2n(CCN2CCOCC2)c2ccc(O)cc12 in this assay:
output: inactive

input: Per the records of this test, what outcome belongs to Cc1ccc2c(c1)C(=C(C#N)C#N)CCCS2(=O)=O ?
output: inactive

input: For this compound, state the assay outcome: Oc1ccccc1/C=N/Nc1nc(N/N=C/c2ccccc2O)nc(N/N=C/c2ccccc2O)n1
output: inactive

input: Kindly provide the recorded test outcome for the following compound: O=C(/C=C1\Nc2ccc([N+](=O)[O-])cc2N\C1=C/C(=O)c1ccc(F)cc1)c1ccc(F)cc1
output: inactive

* * *

Tested on: UO-31
PROCEDURE_DETAILS: NCI tumour cell line growth inhibition, 48 h
The source made the active and inactive calls. Cut-off read from the data, not from the text of the source: active = GI50 up to about 1.1 µM and inactive = higher.
The categories you may choose from are active, inactive

input: Write down the call the test reported for this compound. Item: CC1(C)O[C@@H](CBr)C[C@H](C[C@H]2C[C@@H](O)C[C@@H](CCOCc3ccccc3)O2)O1
output: inactive

input: What did this assay record as the result for COCC([C@@H](O)C(O)C(=O)NCC[C@@H](C)c1nc(/C=C/CC2OC3(C[C@H](O)C2C)OC(C(C[C@H](O)C(C)[C@H](O)C(C)/C=C(C)/C(C)=C/C=C/C(C)=C/C#N)OC)[C@@H](OP(=O)(O)O)C3(C)C)co1)N(C)C (some centres undefined) ?
output: active

input: Which outcome was assigned to CC(Oc1ccc(OCC2CCCCC2)cc1)C(=O)NCCO (centres undefined) in this test?
output: inactive

input: Fill in: this test's call for CC(C)(C)OC(=O)NC(CCC(=O)OCc1ccccc1)C(=O)NCCCO (centres undefined) is ___
output: inactive

input: Which outcome was entered for the compound Nc1ccc2c(c1)Oc1c(F)c(F)cc3c(=O)c(C(=O)O)cn-2c13 in this test?
output: inactive

input: Would you mind telling me which call this test gave CC(C)(C)C(=O)C(CC(=O)c1ccccc1)C(=O)C(C)(C)C ?
output: inactive

input: Returns: the outcome recorded for COc1ccc(OC)c(Cc2cnc3nc(N)nc(N)c3c2C)c1 [PIRITREXIM ISETHIONATE] in this assay.
output: active

input: State the result this test recorded for CC#CCCN(CC#N)Cc1ccccc1 .
output: inactive

input: Just curious, what result did O=[N+]([O-])c1ccc2c(c1)OCCOCCOc1ccc([N+](=O)[O-])cc1OCCOCCO2 get here?
output: inactive

* * *

Recorded measurements of GI50, one per entry
System: PC-3
PROCEDURE_DETAILS: NCI tumour cell line growth inhibition, 48 h
The source made the active and inactive calls. Cut-off read from the data, not from the text of the source: active = GI50 up to about 1.1 µM and inactive = higher.

Sample answers from the record:
COMPOUND	READOUT_KIND	OBSERVED_MEASUREMENT
Cc1cc2ccccc2n2c1nc1ccc(O)cc12	GI50	> 10 µM (inactive)
COC(=O)c1ccccc1NC(=S)NN(C)C	GI50	> 100 µM (inactive)
COC(=O)[C@]12CC[C@H]3CN(C(=O)OCc4ccccc4)[C@H]([C@H]31)[C@H](c1ccco1)N2S(=O)(=O)c1ccc(C)cc1	GI50	31 µM (inactive)
COc1c2c(c(OC)c3c1c(=O)c1ccccc1n3C)OCO2	GI50	19.7 µM (inactive)

# evaluate next
input: Consider the compound shown here: CCCN(C(=O)c1ccccc1)C(C#N)c1ccc(C(C#N)N(CCC)C(=O)c2ccccc2)cc1 (stereo not given) What is its recorded GI50?
output: 68.9 µM (inactive)

* * *

Test system: A498
PROCEDURE_DETAILS: NCI tumour cell line growth inhibition, 48 h
Active and inactive are the calls of the source. Rule as the data show it: active = GI50 up to about 1.1 µM and inactive = higher.
Outcomes you can answer with include only these: active, inactive

Worked cases, answers included:
MOLECULE	ASSIGNED_CATEGORY
CN1CCCC2C(c3ccccc3)C(C3=NCCCC3)C(c3ccccc3)CC21 (configuration not stated)	inactive
S=c1[nH]c2ccc(Br)cc2c(=S)n1-c1ccccc1	inactive
CC(=O)O[C@H]1C(=O)[C@@]2(C)[C@H]([C@H](OC(=O)c3ccccc3)[C@]3(O)C[C@H](OC(=O)[C@H](O)[C@@H](NC(=O)c4ccccc4)c4ccc5ccccc5c4)C(C)=C1C3(C)C)[C@]1(OC(C)=O)CO[C@@H]1C[C@@H]2O	active
CCOC(=O)C(/C(=N/NC(=O)OC)C(=O)Nc1ccc(C(C)=O)cc1)c1cnc2ccccc2n1 (configuration not stated)	inactive
COC(=O)C1=CC2C(=O)c3ccccc3C1(c1ccccc1)N2C1CCCCC1 (configuration not stated)	inactive

input: Recorded test outcome, item COc1cc2c(cc1OC)C(=O)/C(=C/c1cc(C)cc(C)c1)C2
output: active

input: What did the test return for O=c1[nH]c(=O)n(C2OC(COP(=O)(O)OP(=O)(O)O)C(O)C2O)cc1F (configuration not stated) ?
output: inactive

input: For CN1CC(S(=O)(=O)c2ccccc2)CC(S(=O)(=O)c2ccccc2)C1c1ccccc1 (configuration not stated) , which call appears in the assay record?
output: inactive

input: Lab log entry: COc1c2c(c(OC)c3c1c(=O)c1ccccc1n3C)OCO2 — outcome as called in the assay?
output: inactive

* * *

System: HL-60
PROCEDURE_DETAILS: NCI tumour cell line growth inhibition, 48 h
Active and inactive are the calls of the source. Rule as the data show it: active = GI50 up to about 1.1 µM and inactive = higher.
Returns: one label drawn from class 1 for active, class 0 for inactive

COMPOUND	ASSIGNED_CATEGORY
C=C1CC(Cn2ccc(=O)[nH]c2=O)(c2ccc(OC)cc2)OC1=O (stereo unspecified)	class 0
Cc1ccc(OP(=O)(Oc2ccc(C)cc2)N2C=Cc3ccccc3C2C#N)cc1 (stereo unspecified)	class 0
CCCCc1nc(C)oc1C(C)C	class 0
COC(=O)/C(=N\NC(N)=S)C(C(=O)OC)C(=O)C(=O)Nc1ccc(C)cc1 (stereo unspecified)	class 0
c1ccc(/C(=N/Nc2ccccn2)c2cccnn2)cc1	class 0
O=C1NC(=S)N/C1=C/c1c(-c2ccccc2)[nH]c2ccccc12	class 0
COc1ccc(-c2cc(O)c3nc4ccccc4n3c2)cc1	class 0
CN(C)c1ccc(/C=C/C(=O)c2ccc(O)cc2)cc1	class 0

Now examine the next entry.
input: Returns: the outcome recorded for Cc1ccccc1NC(=O)CC(=O)n1nc(-c2ccccc2)c(/N=N/c2ccc([N+](=O)[O-])cc2)c1-c1ccccc1 in this assay.
output: class 0
